Each entry below carries its recorded pKd.
biological target: GST-FABP5; experiment: Evaluation of FABP ligand affinity using ANS (GST-FABP5); conditions: ANS fluorescence displacement; mean±SE of three measurements; read-out: Kd value of FABP for each ligand, GST-FABP5
Sequence (Q01469 whole entry): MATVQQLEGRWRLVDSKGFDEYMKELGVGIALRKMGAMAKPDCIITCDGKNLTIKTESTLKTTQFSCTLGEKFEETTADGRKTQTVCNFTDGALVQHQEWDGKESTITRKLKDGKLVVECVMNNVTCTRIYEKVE
pKd: −log10 of the molar value.

# MOLECULE, MEASUREMENT_TARGET, pKd
measured = [
    ("CC(C)c1ccc(-n2nc(-c3cc(F)ccc3OCCCC(=O)O)cc2-c2ccccc2C(F)(F)F)cc1", "GST-FABP5", 5.87),
    ("O=C(O)CCCOc1ccccc1-c1cc(-c2ccccc2C(F)(F)F)n(-c2ccccc2)n1", "GST-FABP5", 6.72),
    ("CC(C)c1ccc(-n2nc(-c3ccccc3OCCCC(=O)O)cc2-c2ccccc2C(F)(F)F)cc1", "GST-FABP5", 5.74),
    ("O=C(O)CCCOc1ccccc1-c1cc(-c2ccccc2Cl)n(-c2ccccc2)n1 [LIGAND 1, reference compound]", "GST-FABP5", 6.49),
]

----------
target: GST-FABP3; test: Evaluation of FABP ligand affinity using ANS (GST-FABP3); details: ANS fluorescence displacement; mean±SE of three measurements; read-out: Kd value of FABP for each ligand, GST-FABP3
Sequence (P05413 with tags, fused parts or gaps): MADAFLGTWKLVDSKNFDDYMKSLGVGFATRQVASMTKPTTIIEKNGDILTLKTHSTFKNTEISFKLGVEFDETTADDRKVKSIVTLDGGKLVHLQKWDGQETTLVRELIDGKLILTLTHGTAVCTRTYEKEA
Each entry below carries its recorded Kd.
MEASURED_PARAMETER: Kd (nM)

# COMPOUND, MEASURED_PARAMETER, OUTPUT_UNIT, RECORDED_MEASUREMENT
rows = [
    ("O=C(O)CCCOc1ccccc1-c1cc(-c2ccccc2C(F)(F)F)n(-c2ccccc2)n1 [Example Compound 2]", "Kd", "nM", 11.7),
    ("CC(C)c1ccc(-n2nc(-c3cc(F)ccc3OCCCC(=O)O)cc2-c2ccccc2C(F)(F)F)cc1 [Example Compound 4]", "Kd", "nM", 113),
    ("CC(C)c1ccc(-n2nc(-c3ccccc3OCCCC(=O)O)cc2-c2ccccc2C(F)(F)F)cc1 [Example Compound 5]", "Kd", "nM", 54.8),
    ("O=C(O)CCCOc1ccccc1-c1nc(-c2ccccc2C(F)(F)F)n(-c2ccccc2)n1 [Example Compound 3]", "Kd", "nM", 160),
]

----------
biological target: GST-FABP7 (Homo sapiens, UniProt O15540, K110R); assay: Evaluation of FABP ligand affinity using ANS (GST-FABP7); settings: ANS fluorescence displacement; mean±SE of three measurements; read-out: Kd value of FABP for each ligand, GST-FABP7
Sequence (O15540 whole entry K110R): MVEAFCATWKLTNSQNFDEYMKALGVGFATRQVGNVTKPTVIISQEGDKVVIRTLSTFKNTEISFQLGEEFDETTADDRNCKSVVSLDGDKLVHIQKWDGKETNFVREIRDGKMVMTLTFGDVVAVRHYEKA
pKd: −log10 of the molar value.
Each entry below carries its recorded pKd.
MEASURED_PARAMETER: pKd

# SMI, MEASUREMENT_TARGET, RECORDED_MEASUREMENT
rows = [
    ("CC(C)c1ccc(-n2nc(-c3ccccc3OCCCC(=O)O)cc2-c2ccccc2C(F)(F)F)cc1", "GST-FABP7 (Homo sapiens, UniProt O15540, K110R)", "≤ 3.00"),
    ("CC(C)c1ccc(-n2nc(-c3cc(F)ccc3OCCCC(=O)O)cc2-c2ccccc2C(F)(F)F)cc1", "GST-FABP7 (Homo sapiens, UniProt O15540, K110R)", "≤ 3.00"),
    ("O=C(O)CCCOc1ccc(F)cc1-c1cc(-c2ccccc2C(F)(F)F)n(-c2ccccc2)n1", "GST-FABP7 (Homo sapiens, UniProt O15540, K110R)", "≤ 3.00"),
    ("O=C(O)CCCOc1ccccc1-c1nc(-c2ccccc2C(F)(F)F)n(-c2ccccc2)n1", "GST-FABP7 (Homo sapiens, UniProt O15540, K110R)", "≤ 3.00"),
    ("O=C(O)CCCOc1ccccc1-c1cc(-c2ccccc2C(F)(F)F)n(-c2ccccc2)n1", "GST-FABP7 (Homo sapiens, UniProt O15540, K110R)", 5.69),
]

These data points were gathered from patent US20260085047A1.
